# target.of.assay: Bifunctional dihydrofolate reductase-thymidylate synthase (Toxoplasma gondii, UniProt Q07422)
# assay.info: Inhibition of dihydrofolate reductase (DHFR) from Toxoplasma gondii(tg)
IC50 vs 10 nM: less than gives MET; not less than gives NOT MET.

structure	discrete.label
Cc1c(CNc2cccc(Cl)c2)cnc2nc(N)nc(N)c12	NOT MET
COc1ccc(NCc2cnc3nc(N)nc(N)c3c2C)cc1	NOT MET
COc1ccc(N(C)Cc2cnc3nc(N)nc(N)c3c2C)cc1	MET
Cc1c(CN(C)c2ccccc2Cl)cnc2nc(N)nc(N)c12	NOT MET
COc1ccccc1NCc1cnc2nc(N)nc(N)c2c1C	NOT MET
Cc1c(CNc2ccccc2)cnc2nc(N)nc(N)c12	NOT MET

* * *

Target sequence: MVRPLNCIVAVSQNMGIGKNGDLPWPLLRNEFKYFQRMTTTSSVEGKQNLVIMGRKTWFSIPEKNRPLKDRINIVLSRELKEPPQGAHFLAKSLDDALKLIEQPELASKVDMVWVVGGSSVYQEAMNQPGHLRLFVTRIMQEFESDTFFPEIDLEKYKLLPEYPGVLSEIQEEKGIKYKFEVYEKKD
measured.parameter: IC50 (nM)

structure	measured.parameter	recorded.result
COc1ccc(N(C)Cc2cnc3nc(N)nc(N)c3c2C)cc1	IC50	13
COc1cccc(N(C)Cc2cnc3nc(N)nc(N)c3c2C)c1	IC50	18
COc1ccccc1NCc1cnc2nc(N)nc(N)c2c1C	IC50	169
COc1ccc(NCc2cnc3nc(N)nc(N)c3c2C)cc1OC	IC50	44

* * *

# target.of.assay: Bifunctional dihydrofolate reductase-thymidylate synthase (Toxoplasma gondii)
# Sequence (Q07422 whole entry): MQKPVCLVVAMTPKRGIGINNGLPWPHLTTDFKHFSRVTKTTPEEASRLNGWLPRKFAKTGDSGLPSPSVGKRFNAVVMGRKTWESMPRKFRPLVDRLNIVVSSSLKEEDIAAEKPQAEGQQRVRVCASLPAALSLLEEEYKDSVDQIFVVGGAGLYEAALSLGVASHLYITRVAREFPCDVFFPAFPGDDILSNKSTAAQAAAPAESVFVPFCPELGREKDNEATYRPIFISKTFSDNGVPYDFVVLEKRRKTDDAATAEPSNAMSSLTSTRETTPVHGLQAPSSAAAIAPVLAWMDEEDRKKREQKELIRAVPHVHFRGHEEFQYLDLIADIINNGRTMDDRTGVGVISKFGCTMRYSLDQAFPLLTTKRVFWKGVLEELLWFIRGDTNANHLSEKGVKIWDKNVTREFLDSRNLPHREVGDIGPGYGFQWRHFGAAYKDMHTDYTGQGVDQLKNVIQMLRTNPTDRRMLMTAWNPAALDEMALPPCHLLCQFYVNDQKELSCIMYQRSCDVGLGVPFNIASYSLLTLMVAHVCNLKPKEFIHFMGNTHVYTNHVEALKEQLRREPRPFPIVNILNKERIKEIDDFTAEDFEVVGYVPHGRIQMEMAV
# assay.info: Inhibition of dihydrofolate reductase (DHFR) from Toxoplasma gondii(tg)
pIC50: −log10 of the molar value.
measured.parameter: pIC50

structure	recorded.result
COc1cccc(NCc2cnc3nc(N)nc(N)c3c2C)c1	8.13
Cc1c(CNc2ccccc2Cl)cnc2nc(N)nc(N)c12	8.15
Cc1c(CN(C)c2ccc(Br)cc2)cnc2nc(N)nc(N)c12	7.52
COc1cccc(N(C)Cc2cnc3nc(N)nc(N)c3c2C)c1	8.20
Cc1c(CNc2ccc(Br)cc2)cnc2nc(N)nc(N)c12	8.02
Cc1c(CN(C)c2ccc(Cl)cc2)cnc2nc(N)nc(N)c12	8.27
Cc1c(CNc2ccc(Cl)cc2)cnc2nc(N)nc(N)c12	7.72
